These measurements were taken from paper PMC4491694.

# study.target: ToTK1 (Solanum lycopersicum, UniProt Q71F77)
# Construct: full length, 234 residues; GST fusion from pGEX-2T, thrombin-cleaved, recombinant
# Sequence (Q71F77 1-234): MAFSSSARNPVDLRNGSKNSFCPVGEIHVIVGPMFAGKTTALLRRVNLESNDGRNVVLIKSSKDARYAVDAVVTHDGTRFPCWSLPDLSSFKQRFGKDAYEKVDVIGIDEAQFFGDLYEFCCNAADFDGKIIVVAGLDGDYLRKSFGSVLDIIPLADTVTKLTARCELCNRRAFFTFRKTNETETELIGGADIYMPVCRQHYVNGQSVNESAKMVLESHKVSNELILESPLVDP
# test.description: nucleoside kinase assay, 3H-labelled nucleoside substrate
# Format: biochemical
# settings: read-out: IC50 dTTP (μM) / dThd

[
  {
    "smiles.structure": "Cc1cn([C@H]2C[C@H](O)[C@@H](COP(=O)(O)OP(=O)(O)OP(=O)(O)O)O2)c(=O)[nH]c1=O",
    "IC50 [µM]": 49.1
  }
]

====

# study.target: ToTK1 (Solanum lycopersicum, UniProt Q71F77, N123S/T78A)
# Construct: full length, 234 residues; GST fusion from pGEX-2T, thrombin-cleaved, recombinant
# Sequence (Q71F77 1-234 T78A/N123S): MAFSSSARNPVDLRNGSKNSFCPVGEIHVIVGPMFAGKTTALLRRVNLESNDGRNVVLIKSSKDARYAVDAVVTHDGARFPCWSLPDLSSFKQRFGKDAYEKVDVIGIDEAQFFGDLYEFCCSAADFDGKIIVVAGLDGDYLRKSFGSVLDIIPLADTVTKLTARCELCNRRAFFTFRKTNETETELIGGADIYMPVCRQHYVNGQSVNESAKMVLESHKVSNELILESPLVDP
# test.description: nucleoside kinase assay, 3H-labelled nucleoside substrate; Ki equals IC50
# settings: read-out: dThd
pKi: −log10 of the molar value.
experimental.endpoint: pKi

[
  {
    "smiles.structure": "Cc1cn([C@H]2C[C@H](O)[C@@H](COP(=O)(O)OP(=O)(O)OP(=O)(O)O)O2)c(=O)[nH]c1=O",
    "study.target": "ToTK1 (Solanum lycopersicum, UniProt Q71F77, N123S/T78A)",
    "experimental.endpoint": "pKi",
    "recorded.result": 4.25
  }
]
